- procedure_text: High-throughput drug toxicity screening in the BPDCN cell line Gen2.2 (AID 1224824);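 further: cells exposed to compounds for 48 h before reading; 100% = DMSO and 0% = bortezomib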
- conditions: Gen2.2 BPDCN cells; at 45.8 µM (top of the series) unless noted
experimental_readout: cell viability, % of control (lower = more cytotoxic) (%)
Answers are plain numbers, in %.

CC(=O)O[C@]1(C(C)=O)CC[C@H]2[C@@H]3C=C(Cl)C4=CC(=O)[C@@H]5C[C@H]5[C@]4(C)[C@@H]3CC[C@@]21C	42.4
CCNC(=O)c1noc(-c2cc(C(C)C)c(O)cc2O)c1-c1ccc(CN2CCOCC2)cc1	14.2
CNC(=O)[C@H](CC1=CN=C2C=CCC=C12)NC(=O)[C@@H](CC(=O)NO)CC(C)C	31.3

Below is a list of compounds. For each, state its recorded cell viability, % of control (lower = more cytotoxic).
1. CN(C)CCN(Cc1ccc(Cl)cc1)c1ccccn1
2. C=CCc1cccc(C=NNC(=O)CN2CCN(Cc3ccccc3)CC2)c1O

Response:
86.6
67.9

Request: # input compound: `Cn1cnc(-c2cc3nccc(Oc4ccc(NC(=S)NC(=O)Cc5ccccc5)cc4F)c3s2)c1` ; wanted: its cell viability, % of control (lower = more cytotoxic)
Response: 131

====

- procedure_text: qHTS of pediatric cancer cell lines to identify multiple opportunities for drug repurposing: Confirmatory screen for LAN-5 cells (AID 1347113); further: nearly all actives have a fitted effect of over 65% in size
- conditions: LAN-5 neuroblastoma cell viability; series mostly up to 45.9 µM
Results filed as inconclusive are left out. Calls of active or inactive are those of the source. The call rests on the fitted dose curve; in most records, active means well fitted cell-killing curve with a large enough effect; inconclusive means small, poorly fitted or top-dose-only effect, or effect the other way; inactive means no such curve, though single readings can be large or run the other way.
Valid outcomes are listed here; reply with one: 1.0 = active, 0.0 = inactive

Example cases with answers are listed next.
C=CC(=O)Nc1cccc(Sc2nc(Nc3ccc(N4CCN(C)CC4)cc3)ncc2Cl)c1	1.0
CC(C)C[C@H](NC(=O)c1cc2ccccc2s1)C(=O)N1CCN(C(=O)[C@H](CO)NS(=O)(=O)c2ccc(Cl)cc2Cl)CC1	1.0
CN(C)CCN(C)C(=O)c1ccc(NC(=O)Nc2ccc(-c3nc(N4CCOCC4)c4ccn(CC(F)(F)F)c4n3)cc2)cc1	1.0
C[C@H](c1ccc(F)cc1CCCC(=O)O)N(c1cc(F)ccc1F)S(=O)(=O)c1ccc(Cl)cc1	0.0
CCC(=O)OCC(=O)[C@@]1(OC(=O)CC)[C@@H](C)C[C@@H]2[C@H]3CCC4=CC(=O)C=C[C@]4(C)[C@@]3(F)[C@@H](O)C[C@@]21C	0.0
CO[C@H]1/C=C\O[C@@]2(C)Oc3c(C)c(O)c4c(O)c(c(C=NN5CCN(C6CCCC6)CC5)c(O)c4c3C2=O)NC(=O)C(C)=CC=C[C@H](C)[C@H](O)[C@@H](C)[C@@H](O)[C@@H](C)[C@H](OC(C)=O)[C@H]1C	0.0

Request: Record request — test call for COC1CCC(C(=O)c2ccc3nc4c(cc3c2)CCCO4)CC1 (stereo not drawn)
Response: 0.0

Request: Now the same for `Cc1c(C(=O)Nc2ccc(N3C[C@@H](C)O[C@@H](C)C3)nc2)cccc1-c1ccc(OC(F)(F)F)cc1`
Response: 0.0

Request: Now the same for CC1=C(CC(=O)O)c2cc(F)ccc2C1=Cc1ccc(S(C)=O)cc1 (stereo not drawn)
Response: 0.0

Request: Now the same for `CO[C@H]1/C=C\O[C@@]2(C)Oc3c(C)c(O)c4c(O)c(c5c(nc6cc(C)ccn65)c4c3C2=O)NC(=O)C(C)=CC=C[C@H](C)[C@H](O)[C@@H](C)[C@@H](O)[C@@H](C)[C@H](OC(C)=O)[C@H]1C`
Response: 0.0

Request: Now the same for `COc1cc(CNC(=O)CCCCC=CC(C)C)ccc1O`
Response: 0.0

====

- procedure_text: High-throughput drug toxicity screening in the BPDCN cell line Gen2.2 (AID 1224824);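 further: cells exposed to compounds for 48 h before reading; 100% = DMSO and 0% = bortezomib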
- conditions: Gen2.2 BPDCN cells; at 45.8 µM (top of the series) unless noted
- Text: Blastic plasmacytoid dendritic cell neoplasm (BPDCN) is a rare, aggressive and largely incurable hematologic malignancy originating from plasmacytoid dendritic cells (pDCs). Although an initial response to chemotherapy is common, BPDCN prognosis is extremely poor and most patients relapse with drug-resistant disease leading to a median overall survival of ~1 year after diagnosis. […]
experimental_readout: cell viability, % of control (lower = more cytotoxic) (%)
Answers are plain numbers, in %.

These recorded examples may help you get a feel for the data.
COc1ccnc(CS(=O)c2nc3ccc(OC(F)F)cc3[nH]2)c1OC (centres undefined)	282
Cc1ccc(C(=O)N(CCCN)[C@@H](c2nc3cc(Cl)ccc3c(=O)n2Cc2ccccc2)C(C)C)cc1	4.1
Cc1nc2c([nH]1)CCN(C(=O)c1ccc(NC(=O)c3ccccc3-c3ccccc3)cc1)c1ccccc1-2	48.7
NS(=O)(=O)c1ccc(Nc2nc(OCC3CCCCC3)c3[nH]cnc3n2)cc1	12

Below is a list of compounds. For each, state its recorded cell viability, % of control (lower = more cytotoxic).
1. Cc1nn(Cc2ccccc2Cl)c(C)c1CN(C)CC(O)COc1ccc(Cl)cc1 (centres undefined)
2. COc1ccc(-c2oc3c(CC=C(C)C)c(O)cc(O)c3c(=O)c2O)cc1

Response:
18
188

Below is a list of compounds. For each, state its recorded cell viability, % of control (lower = more cytotoxic).
1. COc1cc(N2CCN(C)CC2)ccc1Nc1nc(N)c(C(=O)c2c(Cl)cccc2Cl)s1
2. CCC(=O)N1CCN(c2ccc(-n3c(=O)ccc4cnc5ccc(-c6cnc7ccccc7c6)cc5c43)cc2C(F)(F)F)CC1
3. O=C(CC12CC3CC(CC(C3)C1)C2)Nc1cccc2nc(NCCNCCO)ccc12
4. CCC(c1ccc(O)cc1)C(CC)c1ccc(O)cc1 (centres undefined)
5. O[C@@H](COc1cccc2ncccc12)CN1CCN(C2c3ccccc3[C@@H]3[C@H](c4ccccc42)C3(F)F)CC1 (some centres undefined)

Response:
1: 72.5; 2: 6.39; 3: 5.97; 4: 149; 5: 4.83

====

- procedure_text: Quantitative High-Throughput drug screen in 47 multiple myeloma cell lines against the NCATS MIPE library collection: ARD_JJKsccE7 cell viability assay (AID 1918929;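 on viability: 100% = DMSO-only wells and 0% = media-only wells without cells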)
- conditions: ARD myeloma cell line viability, CellTiter-Glo, 48 h; series mostly up to 45.8 µM
Records with an inconclusive call do not appear. Activity calls are given as the source filed them. Calls follow the shape of the dose curve; as a rule, active = well fitted cell-killing curve with a large enough effect; inconclusive = small, poorly fitted or top-dose-only effect, or effect the other way; inactive = no such curve, though single readings can be large or run the other way.
Valid outcomes are listed here; reply with one: active, inactive

Example cases with answers are listed next.
CC(=O)NCCC(=O)N[C@@H](CCC(N)=O)C(=O)N[C@@H](CO)C(=O)N[C@@H](CCC(N)=O)C(=O)N[C@@H](CCC(N)=O)C(=O)N[C@H](C(=O)N[C@@H](Cc1ccccc1)C(=O)N[C@]1(C)CCCCCCC=CCCC[C@@](C)(C(=O)N[C@@H](CCC(N)=O)C(=O)N[C@@H](CC(N)=O)C(N)=O)NC(=O)[C@H](CC(C)C)NC(=O)[C@H](CC(C)C)NC(=O)[C@@H](CCCNC(=N)N)NC(=O)[C@H](Cc2c[nH]c3ccccc23)NC(=O)[C@H](CC(C)C)NC(=O)[C@H](CC(N)=O)NC1=O)[C@H](C)O	inactive
CC[C@H](C)C(=O)O[C@H]1C[C@H](O)C=C2C=C[C@H](C)[C@H](CC[C@@H](O)C[C@@H](O)CC(=O)O)[C@H]21	inactive
O=C(Nc1cccc(Cl)c1)Nc1ncc(CCNc2ncnc3ccsc23)s1	active

Now for another entry.
Request: Record request — test call for `Cc1cnc(-c2cc(N3CCN(C(=O)CCS(C)(=O)=O)CC3)ncc2Cl)c(C)c1`
Response: inactive

====

- procedure_text: Quantitative High-Throughput drug screen in 47 multiple myeloma cell lines against the NCATS MIPE library collection: MM1S_ATCC cell viability assay (AID 1918980); further: nearly all actives have a fitted effect of over 45% in size
- conditions: MM1S myeloma viability, CellTiter-Glo ATP luminescence, 48 h; series mostly up to 45.8 µM
- From the text: PI: Beverly A. Mock Ph.D. Laboratory of Cancer Biology and Genetics, Center for Cancer Research, National Cancer Institute, National Institute of Health, Bethesda, Maryland […] 5; Detector; 425V; Luminescence; Viewlux PerkinElmer. […] 1. […] Briefly, the corresponding myeloma cell lines were screened in 1,536-well plates with 500 cells, 5-uL per well for inhibition of cell viability (assessed by measuring ATP levels with CellTiterGlo). […]
Records with an inconclusive call do not appear. The source made the active and inactive calls. Calls come from the whole dose curve; as a rule, active = well fitted cell-killing curve with a large enough effect; inconclusive = small, poorly fitted or top-dose-only effect, or effect the other way; inactive = no such curve, though single readings can be large or run the other way.
Valid outcomes are listed here; reply with one: 1 (yes) for active, 0 (no) for inactive

O=C(O)c1nc(=O)[nH]c(=O)[nH]1	0 (no)
CCc1cc(-c2n[nH]c(C)c2-c2ccc3c(c2)OCCO3)c(O)cc1O	1 (yes)
COc1ccc(CCC(=O)Nc2nc3ccc(Cl)cc3s2)cc1OC	1 (yes)
CN1CCC(COc2cnc(-c3cccc(Cn4nc(-c5cccc(C#N)c5)ccc4=O)c3)nc2)CC1	1 (yes)
Cn1cc(-c2ccc3nnc(Sc4ccc5ncccc5c4)n3n2)cn1	1 (yes)

Request: Record request — test call for `CC(O)=C(C#N)C(=O)Nc1ccc(C(F)(F)F)cc1`
Response: 1 (yes)

Request: Now the same for `CCN1CCC(n2cc(CNc3cc(Cl)c4ncc(C#N)c(Nc5ccc(F)c(Cl)c5)c4c3)nn2)CC1`
Response: 1 (yes)

Request: Now the same for `COc1nc(C)cnc1NS(=O)(=O)c1cccnc1-c1ccc(-c2nnco2)cc1`
Response: 0 (no)

Data provenance is PubChem BioAssay (NCATS).
